Hello, the source for this data is PubChem BioAssay AID2060622, in case you need it.

tested on: 242566-281-R-J2-PDC complex spheroid viability; test: Anticancer human tumor 242566-281-R-J2-PDC patient-derived pancreatic carcinoma cell line growth inhibition [CLK]; settings: second compound 0.1 µM; first compound 0.003 µM; stronger effect = lower value;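 also: spheroids exposed to compounds for 7 days before readout; 100% = DMSO vehicle control wells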
Kindly state viability, T/C for each of the entries shown.
Give bare numbers, in %.

Sample answers from the record:
molecule	units_of_measure	result
CC(C)CC(NC(=O)C(Cc1ccccc1)NC(=O)c1cnccn1)B(O)O (centres undefined) + CNC(=O)c1ccc(Nc2nc(OC3CCCC3)c3c(-c4ccc5nc(C)oc5c4)c[nH]c3n2)c(OC)c1	%	62.8
CC(C)CC(NC(=O)C(Cc1ccccc1)NC(=O)c1cnccn1)B(O)O (centres undefined) + CN1CCN(c2cc(C(=O)Nc3cc4cc(-c5cnn(C)c5)ccc4cn3)ccn2)CC1	%	22.7
C=CC(=O)Nc1cc(Nc2nccc(-c3cn(C)c4ccccc34)n2)c(OC)cc1N(C)CCN(C)C + CN1CCN(c2cc(C(=O)Nc3cc4cc(-c5cnn(C)c5)ccc4cn3)ccn2)CC1	%	85.8

Now for the molecule whose viability, T/C we want.
Item C=CC(=O)Nc1cc(Nc2nccc(-c3cn(C)c4ccccc34)n2)c(OC)cc1N(C)CCN(C)C + CNC(=O)c1ccc(Nc2nc(OC3CCCC3)c3c(-c4ccc5nc(C)oc5c4)c[nH]c3n2)c(OC)c1 was tested on 242566-281-R-J2-PDC complex spheroid viability; the reported viability, T/C is 81.7
